- System: EMC-BAC-2 (Non-Small Cell Lung Carcinoma)
- procedure.details: combination Emax (second highest fraction inhibited in the dose matrix, 72 h); higher = more inhibition; extreme values may be limits of the assay

compound	combination Emax
Cc1cc2ncnn2cc1Nc1ncc2c(n1)n(C1CCOCC1)c(=O)n2C [AZD7648] + C[C@@H]1COCCN1C2=NC(=NC(=C2)C3(CC3)[S@](=N)(=O)C)C4=C5C=CNC5=NC=C4 [AZD6738] (first compound max 10 µM, 7x7, partner max 10 µM)	0.513
COc1nnc2ccc(N3CCC(c4ccc(OCCN5CCN(C)C(=O)[C@H]5C)cc4)CC3)nn12 [AZD5153] + C=CCn1c(=O)c2cnc(Nc3ccc(N4CCN(C)CC4)cc3)nc2n1-c1cccc(C(C)(C)O)n1 [AZD1775] (first compound max 1 µM, partner max 1 µM)	0.735
C=CCn1c(=O)c2cnc(Nc3ccc(N4CCN(C)CC4)cc3)nc2n1-c1cccc(C(C)(C)O)n1 [AZD1775] + O=C(c1cc(Cc2n[nH]c(=O)c3ccccc23)ccc1F)N1CCN(C(=O)C2CC2)CC1 [Olaparib] (first compound max 1 µM, partner max 10 µM)	0.269
Cc1c2c(nn1C)CSCc1cc(n(C)n1)CSc1cc(c3ccccc3c1)OCCCc1c(C(=O)O)n(C)c3c-2c(Cl)ccc13 [AZD5991] + C[C@@H](Nc1cc(F)cc(F)c1)c1cc(C(=O)N(C)C)cc2c(=O)cc(N3CCOCC3)oc12 [AZD8186] (first compound max 1 µM, 7x7, partner max 3 µM)	0.632
